assayTarget: Heat shock factor protein 1 (Homo sapiens) (UniProt Q00613)
Sequence (Q00613 whole entry, looked up): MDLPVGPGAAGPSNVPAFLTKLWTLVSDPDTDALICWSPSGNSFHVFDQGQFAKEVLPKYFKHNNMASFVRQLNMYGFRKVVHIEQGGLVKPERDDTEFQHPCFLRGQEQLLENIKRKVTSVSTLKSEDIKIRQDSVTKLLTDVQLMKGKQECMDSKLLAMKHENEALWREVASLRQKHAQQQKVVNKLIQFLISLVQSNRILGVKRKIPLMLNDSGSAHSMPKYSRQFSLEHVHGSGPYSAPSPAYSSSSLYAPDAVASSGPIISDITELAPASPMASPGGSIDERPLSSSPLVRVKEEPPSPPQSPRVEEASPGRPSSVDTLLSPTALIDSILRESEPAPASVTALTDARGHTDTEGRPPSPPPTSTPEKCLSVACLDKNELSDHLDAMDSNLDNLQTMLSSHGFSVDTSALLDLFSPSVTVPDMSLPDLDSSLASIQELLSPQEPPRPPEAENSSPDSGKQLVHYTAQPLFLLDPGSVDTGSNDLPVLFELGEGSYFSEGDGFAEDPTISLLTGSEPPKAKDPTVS
method: ATG_HSE_CIS: Attagene CIS-FACTORIAL HepG2 Assay for human Heat Shock Transcription Factor 1 (HSE) (AID 2282953)
runParameters: HepG2 HSE cis-reporter, Attagene RNA transcription; actives raise or lower the signal
Calls of active or inactive are those of the source. Rule for the calls: active = hit-call score of the fitted dose curve at least 0.9, where 1 is the maximum; inactive = score below 0.9.
Mark one answer only. Choices: yes (active), no (inactive)

Task: Query: recorded result category for `CC(=O)NCCO` in this test
Result: no

New cases:
Task: # fetch the recorded call for `CCOC(=O)CN` here
Result: no

Task: Call for entry `CC=Cc1ccc(OCC)c(O)c1` :
Result: no

Task: So what was the verdict on `CCCCCCCCCC(=O)OC` in this test?
Result: no

Task: Dear all, I need the recorded test outcome for `CCCC(=O)OCCc1ccccc1` , thank you.
Result: no

Task: Call for entry `C=C(C)C(=O)OCC(CC)(COC(=O)C(=C)C)COC(=O)C(=C)C` :
Result: no

Task: In this assay, the call recorded for `Cc1ccc(S(N)(=O)=O)cc1` was what?
Result: no

Task: Record request — test call for `OCCc1ccccc1`
Result: no

Task: Field: outcome | Entry: C=CC(C)(O)CCC=C(C)C (stereo not given)
Result: no

Task: Status in this test for `N#Cc1ccc(CC(=O)c2cccc(C(F)(F)F)c2)cc1` ?
Result: yes

Task: Record request — test call for CC(=O)C1(C)CC2=C(CCCC2(C)C)CC1C (stereo not given)
Result: no

Task: Could you check what this test reported for `CC(C)OCCO` ?
Result: no

Task: What is the recorded call for this compound in the test? `CSc1c(Cl)c(Cl)c(Cl)c(Cl)c1Cl`
Result: no

Task: Please indicate how the test categorized `C=CC(=O)OCCC#N` .
Result: yes

Task: Please let me know the test result on file for `C=C(CC(=O)O)C(=O)O` .
Result: no

Task: Which outcome did this test record for the compound `CCCCCCCCc1ccc(S(=O)(=O)O)cc1` ?
Result: no

Task: Name the outcome recorded for `Cc1ccc(S(=O)(=O)Oc2ccc(N=Nc3ccc(-c4ccc(N=Nc5c(O)ccc6cc(S(=O)(=O)O)cc(S(=O)(=O)O)c56)c(C)c4)cc3C)cc2)cc1` in the assay.
Result: no

Task: Recorded test call requested for C=C(C)C(=O)OCCOC1CC2CC1C1C=CCC21 (stereo not given)
Result: no

Task: Outcome? `CCCCOCC`
Result: no

Task: Please indicate how the test categorized `CCc1cc(C(C)(C)C)c(O)c(C(C)(C)C)c1` .
Result: no

Task: Hello, I am checking results. What call was entered for `c1ccc(CCc2ccccc2)cc1` ?
Result: no

Task: Would you mind telling me which call this test gave `O=C1OC(=O)c2c(Br)c(Br)c(Br)c(Br)c21` ?
Result: no

Task: Status in this test for `O=C(O)c1ccc(O)cc1` ?
Result: no

Task: What is the recorded call for this compound in the test? CC(C)NCC(O)COc1ccc(CC(N)=O)cc1 (stereo not given)
Result: no

Task: Dear all, I need the recorded test outcome for `C/C=C(\C)C(=O)OCCc1ccccc1` , thank you.
Result: no

###

method: ATG_E_Box_CIS: Attagene CIS-FACTORIAL HepG2 Assay for human Enhancer Box (E-box) (AID 2282936)
runParameters: HepG2 E-box cis-reporter transcription, actives raise or lower the signal
Activity calls are given as the source filed them. How the source made its calls: active means hit-call score of the fitted dose curve at least 0.9, where 1 is the maximum; inactive means score below 0.9.
Thanks in advance; please answer with one of these: t for active, f for inactive

// below: answered compounds
Task: Per the assay record, what outcome was assigned to `CCCOCCO` ?
Result: f

Task: // param item: `CCOc1ccccc1O` ; yields the recorded call
Result: f

Task: Name the outcome recorded for `CCCN(CCC)S(=O)(=O)c1ccc(C(=O)O)cc1` in the assay.
Result: f

Task: Returns: the outcome recorded for `CC(C)CCCCCCc1ccc(OCCOCCO)cc1` in this assay.
Result: f

Task: Status in this test for `CN(C)CCOc1ccc(/C(=C(/CCCl)c2ccccc2)c2ccccc2)cc1` ?
Result: f

Alright, here's another compound for you.
Task: Could you kindly confirm the outcome this assay logged for C1=CC2C3C=CC(C3)C2C1 (stereo not given) ?
Result: f

###

Read-out: Interleukin-8 (IL8), CXCL8 (gene 3576)
method: BSK_CASM3C_IL8: BioMAP Diversity Plus: CASM3C Assay for Interleukin-8 (IL8) Biomarker Activity (AID 2283042);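 note: IL-8 protein level quantified by ELISA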
runParameters: primary human coronary artery smooth muscle cells; actives raise or lower the signal
Calls of active or inactive are those of the source. How the source made its calls: active means hit-call score of the fitted dose curve at least 0.9, where 1 is the maximum; inactive means score below 0.9.
Mark one answer only. Choices: active, inactive

Example results:
Task: Could you kindly confirm the outcome this assay logged for `O=C1OC2(c3ccccc31)c1ccc(O)c(Br)c1Oc1c2ccc(O)c1Br` ?
Result: inactive

Task: Per the assay record, what outcome was assigned to `CCCCCC(C=O)=Cc1ccccc1` ?
Result: inactive

Task: Given `CCOC(=O)C(C#N)=C(c1ccccc1)c1ccccc1` , state the outcome it received in this test.
Result: inactive

Task: I'd appreciate the recorded outcome for `CSCCC=O` from this test.
Result: inactive

Task: Tell me the assay call for `COc1cc(Cl)c(OC)cc1N` please.
Result: inactive

Task: Could you kindly confirm the outcome this assay logged for `Clc1cc(Cl)c(-c2c(Cl)c(Cl)cc(Cl)c2Cl)cc1Cl` ?
Result: inactive

Task: Which outcome was entered for the molecule `CN(C)C(=S)SC(=S)N(C)C` in this test?
Result: inactive

Task: Which outcome was assigned to `CC=Cc1ccc(OCC)c(O)c1` in this test?
Result: inactive

Others:
Task: # outcome recorded in this test, key = `CC(C)(N=C=O)c1cccc(C(C)(C)N=C=O)c1`
Result: inactive

Task: Per the assay record, what outcome was assigned to `CCCCN(CCCC)C(=O)N(CCCC)CCCC` ?
Result: active

Task: Name the outcome recorded for `COc1ccc(CCN2CCC(Nc3nc4ccccc4n3Cc3ccc(F)cc3)CC2)cc1` in the assay.
Result: inactive

Task: Returns: the outcome recorded for `CS(=O)(=O)OCCCCOS(C)(=O)=O` in this assay.
Result: inactive

Task: Given CC(C=O)Cc1ccc(C(C)(C)C)cc1 (stereo not given) , state the outcome it received in this test.
Result: inactive

Task: Could you check what this test reported for CCCCCCC(CO)CCCC (stereo not given) ?
Result: inactive

Task: Fill in: this test's call for `CCCCOC(=O)CCCCCCCC(=O)OCCCC` is ___
Result: inactive

Task: Kindly provide the recorded test outcome for the following molecule: `O=C(Nc1ccc2c(O)c(N=Nc3ccc(N=Nc4ccc(S(=O)(=O)O)cc4)cc3)c(S(=O)(=O)O)cc2c1)c1ccccc1`
Result: inactive

Task: Hi, do you know how `CCN(CC)C(=O)N(CC)CC` came out in this test?
Result: inactive

Task: Hi team, can someone confirm the assay call for `IC(I)I` ?
Result: inactive

Task: Called result for `O=C1OC[C@H](Cc2cccc(O)c2)[C@H]1Cc1cccc(O)c1`
Result: inactive

Task: Hi, sorry to bother you, what did the test record for CC(CN=Cc1ccccc1O)N=Cc1ccccc1O (stereo not given) ?
Result: inactive

###

assayTarget: X-box-binding protein 1 (Homo sapiens) (UniProt P17861)
Sequence (P17861 whole entry, looked up): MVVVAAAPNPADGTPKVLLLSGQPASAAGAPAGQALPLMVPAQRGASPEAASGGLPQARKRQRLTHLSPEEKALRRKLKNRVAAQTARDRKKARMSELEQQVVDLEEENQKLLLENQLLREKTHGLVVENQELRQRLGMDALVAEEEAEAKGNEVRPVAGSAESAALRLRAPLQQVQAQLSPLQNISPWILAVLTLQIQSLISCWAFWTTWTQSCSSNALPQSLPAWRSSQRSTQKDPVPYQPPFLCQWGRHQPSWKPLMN
method: ATG_Xbp1_CIS: Attagene CIS-FACTORIAL HepG2 Assay for human X-box Binding Protein 1 (XBP1) (AID 2282972)
runParameters: HepG2 XBP1 cis-element reporter, Attagene multiplex; actives raise or lower the signal
The source made the active and inactive calls. Rule for the calls: active = hit-call score of the fitted dose curve at least 0.9, where 1 is the maximum; inactive = score below 0.9.
experimentalReadout: outcome

Task: Supply recorded outcome for `C1CCCCC1` here.
Result: inactive

Task: Consider the molecule `Cc1ccc(S(=O)(=O)Oc2ccc(N=Nc3ccc(-c4ccc(N=Nc5c(O)ccc6cc(S(=O)(=O)O)cc(S(=O)(=O)O)c56)c(C)c4)cc3C)cc2)cc1` . State its measured outcome.
Result: inactive

Task: Give the reported outcome for this molecule. `Cc1ccc(C)o1`
Result: inactive

###

assayTarget: Retinoic acid receptor RXR-alpha (Homo sapiens) (UniProt P19793)
Sequence (P19793 whole entry, looked up): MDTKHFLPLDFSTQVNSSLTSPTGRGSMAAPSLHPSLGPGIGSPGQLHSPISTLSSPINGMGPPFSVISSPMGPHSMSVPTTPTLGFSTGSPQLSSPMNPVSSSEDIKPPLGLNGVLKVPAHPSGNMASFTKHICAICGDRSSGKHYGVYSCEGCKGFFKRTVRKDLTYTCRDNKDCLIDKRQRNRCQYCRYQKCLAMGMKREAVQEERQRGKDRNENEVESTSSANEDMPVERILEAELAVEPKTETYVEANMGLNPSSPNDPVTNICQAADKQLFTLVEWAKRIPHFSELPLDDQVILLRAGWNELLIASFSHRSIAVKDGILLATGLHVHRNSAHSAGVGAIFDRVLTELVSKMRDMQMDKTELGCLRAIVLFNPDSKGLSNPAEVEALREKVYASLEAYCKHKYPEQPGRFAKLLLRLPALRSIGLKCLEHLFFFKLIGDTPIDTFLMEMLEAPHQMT
method: ATG_RXRa_TRANS: Attagene TRANS-FACTORIAL HepG2 Assay for human Retinoid X Receptor alpha (RXRa) (AID 2283012)
Inconclusive results are not listed. Activity calls are given as the source filed them. Rule for the calls: active = hit-call score of the fitted dose curve at least 0.9, where 1 is the maximum; inconclusive = response in the unintended direction; inactive = score below 0.9.
Return exactly one item of t (active), f (inactive)

Solved entries (count: 5):
Task: // outcome(item) with item = OCC(O)c1ccccc1 (stereo not given)
Result: f

Task: Record lookup: outcome of this test for O=C1NC2NC(=O)NC2N1 (stereo not given) ?
Result: f

Task: GET /call?item= `c1ccc(CCc2ccccc2)cc1` returns the recorded outcome of this test.
Result: f

Task: Test call for this compound, please: `O=C1OC(=O)c2c(Cl)c(Cl)c(Cl)c(Cl)c21`
Result: f

Task: Can you look up the reported call for `CCCC(=O)c1ccccc1` for me?
Result: f

Kindly consider the entry below.
Task: For CCCCCCC(CO)CCCC (stereo not given) , what call appears in the results of this test?
Result: f
